- target_system: SHP2-C SH2;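 also: peptide library displayed on the E. coli surface as eCPX fusions, selected cells deep-sequenced, score is each peptide's frequency after selection divided by its frequency in the input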
- experiment_summary: SH2 binding enrichment of the phosphorylated peptide, bacterial display (enrichment ratio); higher = better substrate or ligand; peptides without Tyr show the background

sequence_input	SH2 binding enrichment
RVGNMYVRGLS [ABCG8_Y209]	0.732
VRQQDYKKVEE [HADHA_Y283_V282D]	0.532
YPPDGYSRHCE [CTNND1_Y213_Y217C]	0.666
MFQVQYNSSVD [LRFN1_Y458_YF]	0.548
AKLNIYKRKVE [VWA3B_Y918]	0.664
PRARTYCFKQE [KLHDC9_Y175_S171R_YF]	1.12
KKLEVYQSIAD [MYBPC3_Y548]	1.18
LKGQVYILVRE [ASS1_Y359_G362V]	0.896
DFKIIYIAPMR [SNRNP200_Y540]	1.32
PPEFSYGLQTQ [SRA1_Y35_Q32E]	0.601
APGDAYGDAGF [SYP_Y250_YF]	0.545
GEEIKYTLWLS [OTC_Y55_M56T]	0.644
LPEVSYVKAID [GLRA1_Y307_K304E]	0.783
PNKAVYTKMMT [G6PD_Y401_E398K]	4.8
QRNEEYCLLDS [ITK_Y198_R193Q]	0.775
MDDKEYFSVHN [MET_Y1234_Y1230D_YF]	0.443
LMQAEYWHDPI [PPT1_Y185_V181M]	0.68
RDSQLYAVDYE [MRPS34_Y34]	0.631
KDKLPYLYDDP [GPX2_Y125_P126L]	0.682
GHGEEYPVAGA [NOTCH3_Y2221_A2223V]	0.621
VDSIEYEVASQ [SLC7A7_Y7_T5I]	0.741
SHLSAYPALEG [CD5_Y465]	0.687
PLGKDYRKAEG [MAP1A_Y1909]	0.647
GSSEDYLHMVH [NIPBL_Y247]	0.556
ASTDYNKRGDF [PDHA1_Y243_Y243N]	0.512
FETSHYLASPD [CTNND2_Y1217_P1218L_YF]	0.904
LQLLGDRPVFS [CHST6_Y358_Y358D_YF]	0.762
GIVKAYFVRAR [AIPL1_Y267_YF]	0.756
ENRKYYMDLKE [PURA_Y156]	0.657

Recorded values, source the supplement of paper PMC10065799.
